Entry source: the supplement of paper PMC10307832

Listed here are compounds together with their documented relative viability.
- Test system: NCI-H650
- PROCEDURE_DETAILS: relative viability (nuclei count vs DMSO), 5 days (fraction); higher = more cells survive
- PROTOCOL_CONDITIONS: first compound 0.3162 µM
TEST_READOUT: relative viability

INSERT INTO assay_data (compound, test_readout, measured_number) VALUES
  ('CCN(CC)CCCCNc1ncc2cc(-c3cc(OC)cc(OC)c3)c(NC(=O)NC(C)(C)C)nc2n1 + O=C(c1cc(Cc2n[nH]c(=O)c3ccccc23)ccc1F)N1CCN(C(=O)C2CC2)CC1 [Olaparib] (partner 8 µM)', 'relative viability', 0.355),
  ('CCN(CC)CCCCNc1ncc2cc(-c3cc(OC)cc(OC)c3)c(NC(=O)NC(C)(C)C)nc2n1 + COc1cccc2cc(-c3nc([C@H]4CC[C@H](C(=O)O)CC4)n4ncnc(N)c34)[nH]c12 [OSI-027] (partner 0.5 µM)', 'relative viability', 0.605),
  ('CCN(CC)CCCCNc1ncc2cc(-c3cc(OC)cc(OC)c3)c(NC(=O)NC(C)(C)C)nc2n1 + COc1cc2c(Oc3ccc(NC(=O)C4(C(=O)Nc5ccc(F)cc5)CC4)cc3F)ccnc2cc1OCCCN1CCOCC1 [Foretinib] (partner 0.25 µM)', 'relative viability', 1.09),
  ('O=c1cc(N2CCOCC2)oc2c(-c3cccc4c3sc3ccccc34)cccc12 + CC(=O)Nc1cccc(-n2c(=O)n(C3CC3)c(=O)c3c(Nc4ccc(I)cc4F)n(C)c(=O)c(C)c32)c1 [Trametinib] (partner 0.02 µM)', 'relative viability', 0.939),
  ('CCN(CC)CCCCNc1ncc2cc(-c3cc(OC)cc(OC)c3)c(NC(=O)NC(C)(C)C)nc2n1 + N=C(N)NC(=N)NCCc1ccccc1 [Phenformin] (partner 250 µM)', 'relative viability', 0.47),
  ('O=c1cc(N2CCOCC2)oc2c(-c3cccc4c3sc3ccccc34)cccc12 + Cc1nc(Nc2ncc(C(=O)Nc3c(C)cccc3Cl)s2)cc(N2CCN(CCO)CC2)n1 [Dasatinib] (partner 0.075 µM)', 'relative viability', 0.512),
  ('O=c1cc(N2CCOCC2)oc2c(-c3cccc4c3sc3ccccc34)cccc12 + O=C(c1cc(Cc2n[nH]c(=O)c3ccccc23)ccc1F)N1CCN(C(=O)C2CC2)CC1 [Olaparib] (partner 8 µM)', 'relative viability', 0.381),
  ('CCN(CC)CCCCNc1ncc2cc(-c3cc(OC)cc(OC)c3)c(NC(=O)NC(C)(C)C)nc2n1 + CCNC(=O)c1noc(-c2cc(C(C)C)c(O)cc2O)c1-c1ccc(CN2CCOCC2)cc1 [Luminespib] (partner 0.01 µM)', 'relative viability', 0.864),
  ('CCN(CC)CCCCNc1ncc2cc(-c3cc(OC)cc(OC)c3)c(NC(=O)NC(C)(C)C)nc2n1 + Cc1nc(Nc2ncc(C(=O)Nc3c(C)cccc3Cl)s2)cc(N2CCN(CCO)CC2)n1 [Dasatinib] (partner 0.075 µM)', 'relative viability', 0.48);

* * *

- System: Calu-6
- PROCEDURE_DETAILS: relative viability (nuclei count vs DMSO), 5 days (fraction); higher = more cells survive
- PROTOCOL_CONDITIONS: first compound 8 µM
TEST_READOUT: relative viability

INSERT INTO results (compound, result) VALUES
  ('O=c1cc(-c2cccc3c2Sc2ccccc2S3)oc(N2CCOCC2)c1 + C[C@@H](Oc1cc(-c2cnn(C3CCNCC3)c2)cnc1N)c1c(Cl)ccc(F)c1Cl [Crizotinib] (partner 1 µM)', 0.733),
  ('O=c1cc(-c2cccc3c2Sc2ccccc2S3)oc(N2CCOCC2)c1 + CC1(C)CCC(c2ccc(Cl)cc2)=C(CN2CCN(c3ccc(C(=O)NS(=O)(=O)c4ccc(N[C@H](CCN5CCOCC5)CSc5ccccc5)c(S(=O)(=O)C(F)(F)F)c4)cc3)CC2)C1 [Navitoclax] (partner 0.5 µM)', 0.858),
  ('O=c1cc(-c2cccc3c2Sc2ccccc2S3)oc(N2CCOCC2)c1 + O=C(c1cc(Cc2n[nH]c(=O)c3ccccc23)ccc1F)N1CCN(C(=O)C2CC2)CC1 [Olaparib] (partner 8 µM)', 0.549),
  ('O=c1cc(-c2cccc3c2Sc2ccccc2S3)oc(N2CCOCC2)c1 + CS(=O)(=O)N1CCN(Cc2cc3nc(-c4cccc5[nH]ncc45)nc(N4CCOCC4)c3s2)CC1 [Pictilisib] (partner 1 µM)', 0.871),
  ('O=c1cc(-c2cccc3c2Sc2ccccc2S3)oc(N2CCOCC2)c1 + CC(C)C[C@H](NC(=O)[C@H](Cc1ccccc1)NC(=O)c1cnccn1)B(O)O [Bortezomib] (partner 0.002 µM)', 0.976);

* * *

Listed here are molecules together with their documented relative viability.
- System: NCI-H1355
- PROCEDURE_DETAILS: relative viability (nuclei count vs DMSO), 5 days (fraction); higher = more cells survive
- PROTOCOL_CONDITIONS: first compound 2.53 µM
TEST_READOUT: relative viability

INSERT INTO measurements (molecule, measured_number) VALUES
  ('COc1nc(C)cnc1NS(=O)(=O)c1cccnc1-c1ccc(-c2nnco2)cc1 [Zibotentan] + C[C@]1(O)C[C@@H](c2nc(-c3ccc4ccc(-c5ccccc5)nc4c3)c3c(N)nccn32)C1 [Linsitinib] (partner 1 µM)', 0.909),
  ('COc1nc(C)cnc1NS(=O)(=O)c1cccnc1-c1ccc(-c2nnco2)cc1 [Zibotentan] + NC(=O)Nc1cc(-c2cccc(F)c2)sc1C(=O)N[C@H]1CCCNC1 [AZD7762] (partner 0.2 µM)', 0.774),
  ('O=c1cc(-c2cccc3c2Sc2ccccc2S3)oc(N2CCOCC2)c1 + N=C(N)NC(=N)NCCc1ccccc1 [Phenformin] (partner 250 µM)', 0.429);

* * *

- System: SK-LU-1
- PROCEDURE_DETAILS: relative viability (nuclei count vs DMSO), 5 days (fraction); higher = more cells survive
- PROTOCOL_CONDITIONS: first compound 0.253 µM
TEST_READOUT: relative viability

INSERT INTO assay_data (compound, measured_number) VALUES
  ('COc1nc(C)cnc1NS(=O)(=O)c1cccnc1-c1ccc(-c2nnco2)cc1 [Zibotentan] + CC1(C)CCC(c2ccc(Cl)cc2)=C(CN2CCN(c3ccc(C(=O)NS(=O)(=O)c4ccc(N[C@H](CCN5CCOCC5)CSc5ccccc5)c(S(=O)(=O)C(F)(F)F)c4)cc3)CC2)C1 [Navitoclax] (partner 0.5 µM)', 0.683),
  ('O=c1cc(-c2cccc3c2Sc2ccccc2S3)oc(N2CCOCC2)c1 + Cc1nc(Nc2ncc(C(=O)Nc3c(C)cccc3Cl)s2)cc(N2CCN(CCO)CC2)n1 [Dasatinib] (partner 0.075 µM)', 0.17),
  ('O=c1cc(-c2cccc3c2Sc2ccccc2S3)oc(N2CCOCC2)c1 + N=C(N)NC(=N)NCCc1ccccc1 [Phenformin] (partner 250 µM)', 0.551),
  ('O=c1cc(-c2cccc3c2Sc2ccccc2S3)oc(N2CCOCC2)c1 + CC(=O)c1c(C)c2cnc(Nc3ccc(N4CCNCC4)cn3)nc2n(C2CCCC2)c1=O [Palbociclib] (partner 0.5 µM)', 0.354),
  ('O=c1cc(-c2cccc3c2Sc2ccccc2S3)oc(N2CCOCC2)c1 + C[C@@H](Oc1cc(-c2cnn(C3CCNCC3)c2)cnc1N)c1c(Cl)ccc(F)c1Cl [Crizotinib] (partner 1 µM)', 1.04),
  ('O=c1cc(-c2cccc3c2Sc2ccccc2S3)oc(N2CCOCC2)c1 + CC(=O)Nc1cccc(-n2c(=O)n(C3CC3)c(=O)c3c(Nc4ccc(I)cc4F)n(C)c(=O)c(C)c32)c1 [Trametinib] (partner 0.02 µM)', 0.512),
  ('COc1nc(C)cnc1NS(=O)(=O)c1cccnc1-c1ccc(-c2nnco2)cc1 [Zibotentan] + CC(C)C[C@H](NC(=O)[C@H](Cc1ccccc1)NC(=O)c1cnccn1)B(O)O [Bortezomib] (partner 0.002 µM)', 0.988),
  ('O=c1cc(-c2cccc3c2Sc2ccccc2S3)oc(N2CCOCC2)c1 + Nc1nc2[nH]cc(CCc3ccc(C(=O)N[C@@H](CCC(=O)O)C(=O)O)cc3)c2c(=O)[nH]1 [Pemetrexed] (partner 0.2 µM)', 1.27),
  ('COc1nc(C)cnc1NS(=O)(=O)c1cccnc1-c1ccc(-c2nnco2)cc1 [Zibotentan] + Cc1nc(NC(=O)N2CCC[C@H]2C(N)=O)sc1-c1ccnc(C(C)(C)C(F)(F)F)c1 [Alpelisib] (partner 2 µM)', 0.629),
  ('O=c1cc(-c2cccc3c2Sc2ccccc2S3)oc(N2CCOCC2)c1 + CS(=O)(=O)N1CCN(Cc2cc3nc(-c4cccc5[nH]ncc45)nc(N4CCOCC4)c3s2)CC1 [Pictilisib] (partner 1 µM)', 0.515);

* * *

- Test system: NCI-H2023
- PROCEDURE_DETAILS: relative viability (nuclei count vs DMSO), 5 days (fraction); higher = more cells survive
- PROTOCOL_CONDITIONS: first compound 0.1 µM
TEST_READOUT: relative viability

INSERT INTO results (compound, test_readout, measured_number) VALUES
  ('CCN(CC)CCCCNc1ncc2cc(-c3cc(OC)cc(OC)c3)c(NC(=O)NC(C)(C)C)nc2n1 + C[C@]1(O)C[C@@H](c2nc(-c3ccc4ccc(-c5ccccc5)nc4c3)c3c(N)nccn32)C1 [Linsitinib] (partner 1 µM)', 'relative viability', 0.636),
  ('CCN(CC)CCCCNc1ncc2cc(-c3cc(OC)cc(OC)c3)c(NC(=O)NC(C)(C)C)nc2n1 + C[C@@H](Oc1cc(-c2cnn(C3CCNCC3)c2)cnc1N)c1c(Cl)ccc(F)c1Cl [Crizotinib] (partner 1 µM)', 'relative viability', 0.639);
